Source listed as patent US20100056508A1.

# System Name: Adrenergic β2 (Homo sapiens, UniProt P07550)
# Construct: Adherent H292 cells were removed from tissue culture flasks; endogenous in cells; host or cells: H292 cells
# Sequence (P07550 whole entry): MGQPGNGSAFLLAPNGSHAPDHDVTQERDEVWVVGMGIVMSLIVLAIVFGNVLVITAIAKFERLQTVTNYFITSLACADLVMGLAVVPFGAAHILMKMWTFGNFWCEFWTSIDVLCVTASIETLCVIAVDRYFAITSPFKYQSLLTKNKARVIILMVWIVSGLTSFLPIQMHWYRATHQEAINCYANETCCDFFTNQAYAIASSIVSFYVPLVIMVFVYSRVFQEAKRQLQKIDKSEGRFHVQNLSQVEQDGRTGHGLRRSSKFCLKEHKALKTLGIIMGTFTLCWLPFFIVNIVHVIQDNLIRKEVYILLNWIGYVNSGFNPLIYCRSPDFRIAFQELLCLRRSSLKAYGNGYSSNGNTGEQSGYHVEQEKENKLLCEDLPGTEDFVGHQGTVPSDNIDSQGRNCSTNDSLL
# Test Description: Adrenergic β2 mediated cAMP production in H292 cells (AlphaScreen cAMP detection)
# Format: cell-based
# Design: key: fraction of formoterol maximum activity (formoterol = 1)
# Experimental Context: Intrinsic Activity as a fraction relative to the maximum activity determined for formoterol
Parameter β2 Int Act: see the listing below.

[
  {
    "Molecule": "O=C1COc2c(CCNCCN(C(=O)CCNCCc3cccc(Cl)c3Cl)C3CCCCC3)ccc(O)c2N1 [Example 29, bis(trifluoroacetate)]",
    "β2 Int Act": 0.91
  },
  {
    "Molecule": "O=C1COc2c(CCNCCN(C(=O)CCNCCc3ccc(Cl)cc3Cl)C3CCCCC3)ccc(O)c2N1 [Example 31, bis(trifluoroacetate)]",
    "β2 Int Act": 0.94
  },
  {
    "Molecule": "Cc1cccc(CCNCCC(=O)N(CCNCCc2ccc(O)c3[nH]c(=O)ccc23)C2CCCCCC2)c1 [Example 8, bis(trifluoroacetate)]",
    "β2 Int Act": 0.79
  },
  {
    "Molecule": "O=C(CCNCCc1cc(F)cc(F)c1)N(CCNCCc1ccc(O)c2[nH]c(=O)ccc12)C1CCCCCC1 [Example 10, bis(trifluoroacetate)]",
    "β2 Int Act": 0.85
  },
  {
    "Molecule": "CCCC[C@@H](C)N(CCNCCc1ccc(O)c2c1OCC(=O)N2)C(=O)CCNCCc1ccccc1Cl [Example 46, bis(trifluoroacetate)]",
    "β2 Int Act": 0.89
  },
  {
    "Molecule": "CCCC[C@@H](C)N(CCNCCc1ccc(O)c2c1OCC(=O)N2)C(=O)CCNCCc1ccc(F)c(Cl)c1 [Example 48, bis(trifluoroacetate)]",
    "β2 Int Act": 0.91
  },
  {
    "Molecule": "C[C@H](C1CCCCC1)N(CCNCCc1ccc(O)c2c1OCC(=O)N2)C(=O)CCNCCc1ccccc1 [Example 61, bis(trifluoroacetate)]",
    "β2 Int Act": 0.84
  },
  {
    "Molecule": "O=C1COc2c(CCNCCN(C(=O)CCNCCc3ccc(F)c(F)c3)C3CCCCCC3)ccc(O)c2N1 [Example 67, bis(trifluoroacetate)]",
    "β2 Int Act": 0.87
  }
]

* * *

# System Name: recombinant human α1D receptor (Homo sapiens)
# Construct: expressed in transfected cells; host or cells: human embryonic kidney 293 cells (HEK93 [sic]), membranes
# Sequence (P25100 whole entry): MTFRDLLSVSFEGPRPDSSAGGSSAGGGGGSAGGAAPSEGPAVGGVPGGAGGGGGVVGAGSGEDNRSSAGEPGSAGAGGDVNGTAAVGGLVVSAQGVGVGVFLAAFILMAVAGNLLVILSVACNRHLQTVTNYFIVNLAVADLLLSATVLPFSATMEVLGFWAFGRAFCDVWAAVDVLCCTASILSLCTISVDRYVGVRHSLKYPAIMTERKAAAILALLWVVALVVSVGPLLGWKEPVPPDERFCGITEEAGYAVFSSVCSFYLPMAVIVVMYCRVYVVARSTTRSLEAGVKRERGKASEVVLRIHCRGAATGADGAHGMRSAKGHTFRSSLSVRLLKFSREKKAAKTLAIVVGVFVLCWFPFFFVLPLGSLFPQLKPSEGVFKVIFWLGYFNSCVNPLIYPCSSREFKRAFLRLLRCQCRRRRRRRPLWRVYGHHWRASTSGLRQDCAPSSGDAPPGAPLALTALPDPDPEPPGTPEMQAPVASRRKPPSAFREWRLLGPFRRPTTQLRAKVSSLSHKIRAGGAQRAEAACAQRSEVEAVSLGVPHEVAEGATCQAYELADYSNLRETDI
# Test Description: Adrenergic α1D selectivity assay, [3H]-prazosin binding to membranes
# Experimental Context: inhibition of [3H]-prazosin binding, HEK cell membranes, read-out: α1 bind pIC50 (converted)

[
  {
    "Molecule": "O=C(CCNCCc1cc(F)cc(F)c1)N(CCNCCc1ccc(O)c2[nH]c(=O)ccc12)C1CCCCCC1 [Example 10, bis(trifluoroacetate)]",
    "IC50 (nM)": 316
  },
  {
    "Molecule": "CCCC[C@@H](C)N(CCNCCc1ccc(O)c2c1OCC(=O)N2)C(=O)CCNCCc1ccc(F)c(C)c1 [Example 47, bis(trifluoroacetate)]",
    "IC50 (nM)": 79.4
  },
  {
    "Molecule": "O=C(CCNCCc1ccccc1)N(CCNCCc1ccc(O)c(O)c1)C1CCCCC1 [Example 22, bis(trifluoroacetate)]",
    "IC50 (nM)": 200
  }
]

* * *

# System Name: Adrenergic β2 (Homo sapiens, UniProt P07550)
# Construct: Adherent H292 cells were removed from tissue culture flasks; endogenous in cells; host or cells: H292 cells
# Test Description: Adrenergic β2 mediated cAMP production in H292 cells (AlphaScreen cAMP detection)
# Assay type: cell-based
# Experimental Context: cAMP production, 60 minutes at room temperature, 300 μM rolipram, read-out: β2 pEC50 (converted)
Where a name gives a salt, the structure may show the parent alone.
Label key: True means EC50 under 4 nM; False means EC50 of 4 nM or more.

[
  {
    "Compound": "O=C1COc2c(CCNCCN(C(=O)CCNCCc3ccccc3)C3CCCCC3)ccc(O)c2N1 [Example 23, bis(trifluoroacetate)]",
    "Assigned Category": "True"
  },
  {
    "Compound": "O=C(CCNCCc1ccccc1)N(CCNCCc1ccc(O)c2[nH]c(=O)ccc12)C1CCCCCC1 [Example 7, bis(trifluoroacetate)]",
    "Assigned Category": "False"
  },
  {
    "Compound": "Cc1cc(CCNCCC(=O)N(CCNCCc2ccc(O)c3c2OCC(=O)N3)C2CCCCC2)ccc1F [Example 40, bis(trifluoroacetate)]",
    "Assigned Category": "False"
  },
  {
    "Compound": "CCCC[C@@H](C)N(CCNCCc1ccc(O)c2c1OCC(=O)N2)C(=O)CCNCCc1cccc(F)c1F [Example 53, bis(trifluoroacetate)]",
    "Assigned Category": "False"
  },
  {
    "Compound": "CCCCN(CCNCCc1ccc(O)c2[nH]c(=O)ccc12)C(=O)CCOCCc1ccccc1 [Example 1, hydrochloride]",
    "Assigned Category": "False"
  },
  {
    "Compound": "O=C1COc2c(CCNCCN(C(=O)CCNCCc3cccc(Cl)c3Cl)C3CCCCC3)ccc(O)c2N1 [Example 29, bis(trifluoroacetate)]",
    "Assigned Category": "False"
  },
  {
    "Compound": "O=C1COc2c(CCNCCN(C(=O)CCNCCc3cccc(Cl)c3)C3CCCCC3)ccc(O)c2N1 [Example 27, bis(trifluoroacetate)]",
    "Assigned Category": "True"
  },
  {
    "Compound": "O=C1COc2c(CCNCCN(C(=O)CCNCCc3cc(F)cc(Cl)c3)C3CCCCCC3)ccc(O)c2N1 [Example 66, bis(trifluoroacetate)]",
    "Assigned Category": "True"
  },
  {
    "Compound": "CCCC[C@@H](C)N(CCNCCc1ccc(O)c2c1OCC(=O)N2)C(=O)CCNCCc1cc(F)cc(F)c1 [Example 51, bis(trifluoroacetate)]",
    "Assigned Category": "True"
  }
]

* * *

Quick reference for IC50 among some compounds
# System Name: recombinant human adrenergic beta 1 receptors (Homo sapiens)
# Construct: purchased Euroscreen
# Sequence (P08588 whole entry): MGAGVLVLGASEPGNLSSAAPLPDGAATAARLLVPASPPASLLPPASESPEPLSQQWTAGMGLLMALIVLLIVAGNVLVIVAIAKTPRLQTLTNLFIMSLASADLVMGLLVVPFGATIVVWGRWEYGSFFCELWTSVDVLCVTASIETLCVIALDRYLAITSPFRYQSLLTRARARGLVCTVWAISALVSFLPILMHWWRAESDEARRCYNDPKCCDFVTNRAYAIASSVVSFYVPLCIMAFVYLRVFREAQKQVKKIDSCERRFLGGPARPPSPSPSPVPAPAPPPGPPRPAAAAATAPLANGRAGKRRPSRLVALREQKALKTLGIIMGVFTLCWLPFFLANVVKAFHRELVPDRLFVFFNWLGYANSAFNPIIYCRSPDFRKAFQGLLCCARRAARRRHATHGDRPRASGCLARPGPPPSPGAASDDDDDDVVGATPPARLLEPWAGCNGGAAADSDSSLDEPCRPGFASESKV
# Test Description: Adrenergic β1 selectivity assay, [125I]-Iodocyanopindolol binding to membranes
# Experimental Context: inhibition of [125I]-Iodocyanopindolol binding, read-out: β1 bind pIC50 (converted)
# Protocol: Membranes containing recombinant human adrenergic beta 1 receptors were obtained from Euroscreen. […] Assays were performed in U-bottomed 96-well polypropylene plates. […] Five washes with 250 μL wash buffer (50 mM HEPES, 1 mM EDTA, 120 mM NaCl, pH 7.4) were performed at 4° C. to remove unbound radioactivity. […] The plates were sealed (TopSeal A) and filter-bound radioactivity was measured with a scintillation counter (TopCount, Packard BioScience) using a 3-minute counting protocol. […]
Measured Property: IC50

[
  {
    "Compound": "O=C(CCNCCc1cccc(F)c1F)N(CCNCCc1ccc(O)c2[nH]c(=O)ccc12)C1CCCCC1",
    "Measurement": "> 10 µM"
  },
  {
    "Compound": "O=C1COc2c(CCNCCN(C(=O)CCNCCc3ccc(C(=O)O)cc3)C3CCCCC3)ccc(O)c2N1 [Example 43, bis(trifluoroacetate)]",
    "Measurement": "> 10 µM"
  },
  {
    "Compound": "CC(C)[C@@H](C)N(CCNCCc1ccc(O)c2[nH]c(=O)ccc12)C(=O)CCOCCc1ccccc1.Cl [Example 80, hydrochloride]",
    "Measurement": "> 10 µM"
  }
]

* * *

Quick reference for β2 Int Act among some compounds
# System Name: Adrenergic β2 (Homo sapiens)
# Construct: Adherent H292 cells were removed from tissue culture flasks; endogenous in cells; host or cells: H292 cells
# Test Description: Adrenergic β2 mediated cAMP production in H292 cells (AlphaScreen cAMP detection)
# Assay type: cell-based
# Design: key: fraction of formoterol maximum activity (formoterol = 1)
# Experimental Context: Intrinsic Activity as a fraction relative to the maximum activity determined for formoterol
# Method: Adrenergic β2 Mediated cAMP Production H292 cells were grown in 225 cm2 flasks incubator at 37° C., 5% CO2 in RPMI medium containing, 10% (v/v) FBS (foetal bovine serum) and 2 mM L-glutamine. […] The concentration of cAMP (cyclic adenosine monophosphate) in the cell lysate was determined using AlphaScreen™ methodology. […] Intrinsic Activity was expressed as a fraction relative to the maximum activity determined for formoterol in each experiment.
Counter-ions that a name gives are not always drawn.
Measured Property: β2 Int Act

[
  {
    "Compound": "O=C1COc2c(CCNCCN(C(=O)CCNCCc3cccc(Cl)c3F)C3CCCCC3)ccc(O)c2N1 [Example 39, bis(trifluoroacetate)]",
    "System Name": "Adrenergic β2 (Homo sapiens)",
    "Measurement": 0.98
  },
  {
    "Compound": "O=C1Cc2c(CCNCCN(C(=O)CCNCCc3cccc(F)c3)C3CCCCC3)ccc(O)c2N1 [Example 20, dihydrobromide]",
    "System Name": "Adrenergic β2 (Homo sapiens)",
    "Measurement": 0.78
  },
  {
    "Compound": "CC[C@@H](C)N(CCNCCc1ccc(O)c2[nH]c(=O)ccc12)C(=O)CCOCCc1ccccc1.Cl [Example 79]",
    "System Name": "Adrenergic β2 (Homo sapiens)",
    "Measurement": 0.92
  }
]
